system: Hs-578T; assay: NCI tumour cell line growth inhibition, 48 h
Calls of active or inactive are those of the source. Rule as the data show it: active = GI50 up to about 1.1 µM and inactive = higher.
Labels: 1 (yes) (active), 0 (no) (inactive)

| COMPOUND | GROUP |
| --- | --- |
| CCCCCCCCCCCCCCCCCCNc1ccn(C2OC(COP(=O)(O)OCC3OC(n4cc(C)c(=O)[nH]c4=O)CC3N=[N+]=[N-])C(O)C2O)c(=O)n1 (stereo unspecified) | 0 (no) |
| C=C1c2nc3ccccc3n2C=C(c2ccccc2)N1c1ccc([N+](=O)[O-])cc1 | 0 (no) |
| COc1cccc(/C=C/C(=O)N2CC(CCl)c3c2cc(N)c2ccccc32)c1 (stereo unspecified) | 1 (yes) |
| Cc1ccc(C(=O)Nc2ccc(CP(=O)(O)O)cc2CP(=O)(O)O)cc1N | 0 (no) |
| c1ccc(C[n+]2cccc(-c3cc4ccccc4[nH]3)c2)cc1 | 0 (no) |
| CCCCC1(N=[N+]=[N-])C(=O)C2C=CC=C3c4ccccc4N(C1=O)C32 (stereo unspecified) | 0 (no) |
| CN(CCC(=O)O)S(=O)(=O)c1ccccc1 | 0 (no) |
| COc1cc(/C=C/c2ccc(O)c(OC)c2)cc(OC)c1 | 0 (no) |
| COc1cccc([C@H]2C/C(=N\NC(=O)C(=O)N[C@@H](C)c3ccccc3)c3ccccc3N2)c1 | 1 (yes) |
| Cc1ccc(C)c2c1CC(Cc1ccccc1C(=O)O)C2=O (stereo unspecified) | 0 (no) |
| COc1ccc(-c2nc3ncccn3c2-c2ccc(S(C)(=O)=O)cc2)cc1 | 0 (no) |
| O=c1c2ccccc2[nH]n1Cc1ccccc1 | 0 (no) |
| CCOC(=O)/C=C(\C(=O)OCC)n1cc(Cl)c(=O)n(CC(=O)OCC)c1=O | 0 (no) |
| CO/C(=N\N=C\c1ccc(OC)c(OC)c1)c1ccncc1 | 0 (no) |
| COCn1c(C)c(C)c2c(=O)oc(=O)[nH]c21 | 0 (no) |
| C=C(C)CC1(O)C(=O)C(OCC)=C1OCC (stereo unspecified) | 0 (no) |
| O=C(Nc1cccc(C(=O)NCCCO)c1)/C(=C/c1ccccc1)NC(=O)c1ccccc1 | 0 (no) |
| CC(=O)/N=C1/N(/C=C2\C(=O)Oc3ccccc3C2=O)C(=O)/C(=C/c2ccc(NC(C)=O)cc2)N1C | 0 (no) |
| COc1ccccc1CCN1CCN(CCCc2ccccc2)CC1 | 0 (no) |
| C[N+](C)([O-])Cc1cc(-c2ccccc2)ccc1O | 0 (no) |
| COc1ccc(-c2c(C(=O)Nc3ccccc3)c(-c3ccccc3)n(C3OC(CO)C(O)C(O)C3O)c(=S)c2C#N)cc1 (stereo unspecified) | 0 (no) |
